# IC50 values compiled below
- MEASURED_TARGET: human neutrophil cathepsin G (Homo sapiens, UniProt P08311)
- Construct: human neutrophil cathepsin G (Athens Research and Technology); purchased Athens Research and Technology; host or cells: human neutrophils (from the enzyme's name)
- Sequence (P08311 21-243 limits assumed): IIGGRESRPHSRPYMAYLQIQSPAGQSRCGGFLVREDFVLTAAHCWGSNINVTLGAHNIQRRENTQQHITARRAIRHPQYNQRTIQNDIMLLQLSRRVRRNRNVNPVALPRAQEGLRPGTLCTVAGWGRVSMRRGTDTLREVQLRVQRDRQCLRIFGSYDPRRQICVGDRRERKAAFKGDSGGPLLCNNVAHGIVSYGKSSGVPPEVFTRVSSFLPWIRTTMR
- TEST_METHOD_NOTES: Enzyme-catalyzed hydrolysis assay, cathepsin G (chromogenic substrate Suc-Ala-Ala-Pro-Phe-pNa)
- Assay type: biochemical
- CONDITION_NOTES: 70 nM enzyme, 5 mM substrate, pH 7.4, 37° C., 30 minutes; read-out: IC50 (μM) CatG
Expressed in µM, but write only the number.

As a guide, the following entries are already answered.
MOLECULE	IC50 (µM)
CC1CCC(N(C)C(=O)c2cc3ccccc3cc2C(=O)C(c2cccc3ccccc23)P(=O)(O)O)CC1 (stereo not drawn) [Compound 27]	0.07
O=C(NCc1ccc(S(=O)(=O)N2CCN(C(=O)c3cc4ccccc4cc3C(=O)C(c3cccc4ccccc34)P(=O)(O)O)CC2)s1)c1ccccc1 (stereo not drawn) [Compound 41]	0.31
O=C(NC1CCN(C(=O)c2ccc3ccccc3c2)CC1)c1cc2ccccc2cc1C(=O)C(c1cccc2ccccc12)P(=O)(O)O (stereo not drawn) [Compound 30]	0.59
CC(C)C(=O)N1CCC(N(C)C(=O)c2cc3ccccc3cc2C(=O)C(c2cccc3ccccc23)P(=O)(O)O)CC1 (stereo not drawn) [Compound 20]	0.09
O=C(c1cc2ccccc2cc1C(=O)N1CCC(c2ccccc2)CC1)C(c1cccc2ccccc12)P(=O)(O)O (stereo not drawn) [Compound 7]	0.21

Let us move to another entry and its IC50.
Qu. Identify the measured IC50 of O=C(c1cc2ccccc2cc1C(=O)N1CCN(C(=O)Cc2ccc3ccccc3c2)CC1)C(c1cccc2ccccc12)P(=O)(O)O (stereo not drawn) [Compound 37] for human neutrophil cathepsin G (Homo sapiens, UniProt P08311).
Ans. 0.74

Values compiled from patent US8703957B2.
